Sequence of the target: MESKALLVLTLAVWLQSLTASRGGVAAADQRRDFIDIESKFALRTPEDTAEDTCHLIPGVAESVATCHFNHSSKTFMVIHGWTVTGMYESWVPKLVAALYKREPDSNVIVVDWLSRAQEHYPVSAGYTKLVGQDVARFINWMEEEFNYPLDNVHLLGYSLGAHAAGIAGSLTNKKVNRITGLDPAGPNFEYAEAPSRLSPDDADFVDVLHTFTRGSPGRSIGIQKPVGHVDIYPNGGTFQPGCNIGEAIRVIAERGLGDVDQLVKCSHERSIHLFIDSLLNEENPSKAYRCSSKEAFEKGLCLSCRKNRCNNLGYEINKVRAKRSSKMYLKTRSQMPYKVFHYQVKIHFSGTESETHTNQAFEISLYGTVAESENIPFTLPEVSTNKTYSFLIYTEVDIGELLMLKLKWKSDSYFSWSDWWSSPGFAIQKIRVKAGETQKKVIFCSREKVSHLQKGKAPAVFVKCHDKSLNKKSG
READOUT_KIND: IC50

// Input: O=C(c1ccc2c(ccn2-c2ccc(F)cc2)c1)N1CC(N2CCN(C(=O)c3nccs3)CC2)C1 . Output its IC50 only.
> 30 µM

----------
# TARGET: Muscarinic acetylcholine receptor M3 (Homo sapiens, UniProt P20309)
# Sequence (P20309 whole entry): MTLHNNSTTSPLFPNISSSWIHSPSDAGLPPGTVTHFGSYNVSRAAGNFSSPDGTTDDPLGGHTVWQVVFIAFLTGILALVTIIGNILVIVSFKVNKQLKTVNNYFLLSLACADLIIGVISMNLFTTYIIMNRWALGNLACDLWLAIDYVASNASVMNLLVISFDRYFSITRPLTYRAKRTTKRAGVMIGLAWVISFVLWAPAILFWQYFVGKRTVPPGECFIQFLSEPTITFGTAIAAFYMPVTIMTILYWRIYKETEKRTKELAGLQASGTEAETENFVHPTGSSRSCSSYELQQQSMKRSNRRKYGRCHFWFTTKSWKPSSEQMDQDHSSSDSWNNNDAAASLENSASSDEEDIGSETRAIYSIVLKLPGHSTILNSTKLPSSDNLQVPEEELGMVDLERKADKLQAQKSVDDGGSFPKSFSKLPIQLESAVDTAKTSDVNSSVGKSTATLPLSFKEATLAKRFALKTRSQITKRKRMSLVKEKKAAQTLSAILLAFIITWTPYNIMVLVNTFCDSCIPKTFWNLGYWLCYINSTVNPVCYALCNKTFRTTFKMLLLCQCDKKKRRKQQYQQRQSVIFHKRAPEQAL
# PROTOCOL_TEXT: GPCRScan assay: inhibition of M3
# Design: radioligand conc. used [nm] 0.3 – 1.0, parental cells stable CHO
pKi: −log10 of the molar value.
READOUT_KIND: pKi

// Input: O=C(c1ccc2c(ccn2-c2ccc(F)cc2)c1)N1CC(N2CCN(C(=O)c3nccs3)CC2)C1 . Output its pKi only.
< 5.00
